Where these numbers come from: patent US10800807B2

- target.desc: human glutathione transferase-tagged FXR-LBD (Homo sapiens)
- Construct: human glutathione transferase-tagged FXR-LBD (Life Technologies, USA)
- Sequence (Q96RI1 262-486 limits assumed): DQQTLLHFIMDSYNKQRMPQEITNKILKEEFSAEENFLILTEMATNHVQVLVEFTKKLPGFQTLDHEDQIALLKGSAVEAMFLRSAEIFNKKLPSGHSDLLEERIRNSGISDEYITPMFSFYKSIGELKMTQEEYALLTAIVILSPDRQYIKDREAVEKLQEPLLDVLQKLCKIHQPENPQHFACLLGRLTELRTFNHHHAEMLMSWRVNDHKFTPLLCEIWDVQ
- experiment: FXR AlphaScreen coactivator recruitment assay (human)
- test.settings: human FXR-LBD, AlphaScreen; read-out: hFXR EC50
The threshold is 3 µM. Values of EC50 beneath it are tagged fulfilled; values meeting or exceeding it are tagged not fulfilled.

q: Please let me know if CC[C@H]1[C@@H](O)C2C3CC[C@H]([C@H](C)C[C@H](CO)C(=O)O)[C@@]3(C)[C@@H](O)CC2[C@@]2(C)CC[C@@H](O)C[C@@H]12 (stereo partly drawn) shows EC50 below 3 µM.
a: not fulfilled

q: Please let me know if CC[C@H]1[C@@H](O)[C@@H]2[C@H](CC[C@]3(C)[C@@H]([C@H](C)CCc4nn[nH]n4)[C@@H](O)C[C@@H]23)[C@@]2(C)CC[C@@H](O)C[C@@H]12 shows EC50 below 3 µM.
a: fulfilled

q: Please let me know if CC[C@H]1[C@@H](O)C2C3CC[C@H]([C@H](C)C[C@@H](CO)C(=O)O)[C@@]3(C)[C@@H](O)CC2[C@@]2(C)CC[C@@H](O)C[C@@H]12 (stereo partly drawn) shows EC50 below 3 µM.
a: not fulfilled

q: Please let me know if CC[C@@H]1C2C[C@H](O)CC[C@]2(C)C2CC[C@@]3(C)C(CC[C@@H]3[C@H](C)Cc3nn[nH]n3)C2[C@@H]1O (stereo partly drawn) shows EC50 below 3 µM.
a: fulfilled

q: Please let me know if CC[C@H]1[C@@H](O)[C@@H]2[C@H](C[C@H](O)[C@]3(C)[C@@H]([C@H](C)C[C@@H](O)C(=O)O)CC[C@@H]23)[C@@]2(C)CC[C@@H](O)C[C@@H]12 shows EC50 below 3 µM.
a: not fulfilled

Now, please, on to the next molecule.
q: Please let me know if CC[C@H]1[C@@H](O)[C@@H]2[C@H](C[C@H](O)[C@]3(C)[C@@H]([C@H](C)C[C@H](O)C(=O)O)CC[C@@H]23)[C@@]2(C)CC[C@@H](O)C[C@@H]12 shows EC50 below 3 µM.
a: not fulfilled
